Test system: MCF7 breast
protocolDetails: NCI-60 one-dose screen, 48 h (100 = growth as untreated, 0 = no growth, -100 = all killed)
reportedConditions: 10 µM unless noted
The panel holds about 83,000 compounds, 20% with a hit somewhere; the sample as a whole holds those more often.
Classification scheme (growth): class A = under 40%, class B = from 40% up to 90%, class C = 90% and over

[[record]]
molecule = "O=Nc1c(-c2c(O)[nH]c3ncccc23)[nH]c2ccccc12"
label = "class B"

[[record]]
molecule = "O=C(COc1ccc(-c2nc3ccccc3[nH]2)cc1)N=Nc1c(O)[nH]c2ccc(Cl)cc12"
label = "class A"

[[record]]
molecule = "CO/N=C(/C)c1ccc(NC(=O)CSc2nnc(-c3ccncc3)n2-c2ccccc2)cc1"
label = "class B"

[[record]]
molecule = "Clc1ccc2c(c1)N(c1ncnc3ccc(-c4cnc5[nH]ncc5c4)cc13)CC2"
label = "class A"

[[record]]
molecule = "Cc1cccc(N2CCN(CC(O)COc3ccc(Cl)cc3)CC2)c1 (stereo unspecified)"
label = "class C"

[[record]]
molecule = "O=c1oc2ccc([N+](=O)[O-])cc2cc1Br"
label = "class C"

[[record]]
molecule = "O=C(OCc1ccc2c(Cl)cc(Cl)c(O)c2n1)n1cncn1"
label = "class A"

